Values from patent US11426412B2

The following compounds are shown together with reported IC50 values.
# tested on: PAD4 (Homo sapiens (Human), UniProt Q9UM07)
# Sequence (Q9UM07 whole entry): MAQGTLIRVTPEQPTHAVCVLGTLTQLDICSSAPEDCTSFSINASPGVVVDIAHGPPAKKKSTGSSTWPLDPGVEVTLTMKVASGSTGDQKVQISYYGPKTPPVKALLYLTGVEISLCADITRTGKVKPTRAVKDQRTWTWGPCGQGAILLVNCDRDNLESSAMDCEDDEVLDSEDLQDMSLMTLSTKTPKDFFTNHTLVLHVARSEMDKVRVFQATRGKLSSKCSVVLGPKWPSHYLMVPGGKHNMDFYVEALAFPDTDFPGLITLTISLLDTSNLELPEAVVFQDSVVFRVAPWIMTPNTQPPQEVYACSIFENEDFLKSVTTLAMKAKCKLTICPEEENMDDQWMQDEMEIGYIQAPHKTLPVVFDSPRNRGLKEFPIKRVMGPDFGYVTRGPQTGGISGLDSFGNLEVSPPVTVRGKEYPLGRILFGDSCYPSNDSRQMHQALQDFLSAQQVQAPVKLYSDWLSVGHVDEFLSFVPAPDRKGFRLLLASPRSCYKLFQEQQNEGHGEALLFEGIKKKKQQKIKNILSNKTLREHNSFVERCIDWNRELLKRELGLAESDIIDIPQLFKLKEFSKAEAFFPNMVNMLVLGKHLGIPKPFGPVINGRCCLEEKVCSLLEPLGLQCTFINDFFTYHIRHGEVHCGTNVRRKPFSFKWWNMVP
# assay overview: FP binding assay

[
  {
    "mol smiles": "Cc1c(-c2cc3ccc(F)cc3n2CC2CC2)nc2cc(C(=O)N3CCC[C@@H](N)C3)ccn12",
    "IC50": "< 1000 nM"
  },
  {
    "mol smiles": "N[C@@H]1CCCN(C(=O)c2ccn3c(-c4ccccc4)c(-c4cc5ccccc5n4CC4CC4)nc3c2)C1",
    "IC50": "> 10000 nM"
  },
  {
    "mol smiles": "COc1ccc2cc(-c3nc4cc(C(=O)N5CCC[C@@H](N)C5)ccn4c3C)n(CC3CC3)c2c1",
    "IC50": "< 1000 nM"
  }
]

Kindly review the next compound as well.
Problem: Would you kindly share the measured IC50 for "Cc1c(-c2cc3cc(F)ccc3n2CC2CC2)nc2cc(C(=O)N3CCC[C@@H](N)C3)ccn12" ?
Result: < 1000 nM
